Readings of Inhibition for the listed compounds
- System: Plasmodium falciparum
- assayOverview: GSK_TCMDC: Inhibition of Plasmodium falciparum Dd2 in whole red blood cells, using parasite LDH activity as an index of growth. Test compounds present at 2uM
- Format: functional
# value in %; strip the unit string

These solved cases illustrate the format of a correct answer.
The compound listed as `CCOc1c(OC)ccc2c1CCN(CCN1CCC(CNC(=O)c3ccc(-c4ccc(C(F)(F)F)cc4)cc3)CC1)C2` shows Inhibition equal to 21

Recorded result, `C[C@H](Cc1ccc(OCCCCCCCOc2ccc(C[C@@H](C)NC[C@H](O)c3cccc(Cl)c3)cc2)cc1)NC[C@H](O)c1cccc(Cl)c1.Cl` , Inhibition: 97

Query `COc1ccc(S(=O)(=O)NC2CCN(c3ccc(C(F)(F)F)cc3NC(=O)OCC(C)C)CC2)cc1` yields Inhibition of 13

As a next step, examine the compound that follows.
For `CCOc1cc(C(=O)Nc2cccnc2)cc(Br)c1OCCC(C)C` the compound record lists Inhibition as 51

---

Measured Inhibition accompanies every entry in the list below.
- Tested on: HepG2
- assayOverview: GSK_TCMDC: Percent inhibition of human HepG2 cell line. Test compounds present at 10uM.
- Type: functional
State just the number; it will be interpreted in %.

Examples with their reported Inhibition follow.
// recorded Inhibition for C#CC(C)(CO)N1CCCC1 (centres undefined) : 10

// recorded Inhibition for `CCOC(=O)c1cccc(NC(=O)Nc2cccc(-c3ncc(OCCCN)c4c3nc(-c3nonc3N)n4CC)c2)c1.O=C(O)C(F)(F)F` : 16

The measured Inhibition associated with `CCCN(CCC)C(=O)c1cc(C(=O)N[C@@H](Cc2ccccc2)[C@H](O)CNCc2cccc(C(F)(F)F)c2)cc(N2CCCCS2(=O)=O)c1` reads 0

***
Noted for O=C(Nc1ccc(C(=O)Oc2ccc(-c3ccccc3)cc2)cc1)N[C@@H](Cc1ccc(O)cc1)C(=O)NC1CCN(Cc2ccc(O)cc2)C1.O=C(O)C(F)(F)F (some centres undefined) : its Inhibition reads 0

The recorded Inhibition for entry `O=C(Nc1ccc(-c2nc3ccccc3[nH]2)cc1)c1ccc(S(=O)(=O)N2CCCCCC2)cc1` equals 8

Lab note: `CCN1CCC(N(Cc2ccc(-c3ccc(C(F)(F)F)cc3)cc2)C(=O)Cn2c(CCc3cccc(F)c3F)cc(=O)c3ccccc32)CC1.O=C(O)C(O)C(O)C(=O)O` gave Inhibition of 100

---

As shown below, each of these compounds has a reported Inhibition value.
- Tested on: Plasmodium falciparum
- assayOverview: GSK_TCMDC: Inhibition of Plasmodium falciparum 3D7 in whole red blood cells, using parasite LDH activity as an index of growth. Test compounds present at 2uM
- Assay type: functional
Give the value, in units of %, as a plain number.

See these solved cases before continuing.
Response field Inhibition (Plasmodium falciparum) for item `O=C(/C=C/c1ccc(C(F)(F)F)cc1)NCCCCCN1CCCN(C(=O)Nc2ccc(Cl)c(Cl)c2)CC1` : 100

Form field, Inhibition with Plasmodium falciparum, item C=C(C)C1CC=C(CN2CCC(N3CCc4cc(NC(=O)c5cc(C)on5)ccc43)C2)CC1 (stereo not drawn) : 90

Considering `O=c1c(NCCCN(Cc2ccc(F)cc2)c2ccccn2)c(NCc2cccnc2)c1=O` , its Inhibition with Plasmodium falciparum was recorded as 100

Field Inhibition (Plasmodium falciparum), entry `COc1cc(F)c2ncc(Cl)c(CCN3CCC(NCc4ccc5c(c4)NC(=O)CO5)CC3)c2c1.Cl` : 95

New cases:
Tested system Plasmodium falciparum; Inhibition recorded for `COc1cccc(CCc2ccc(O)c3c2C[C@H]2C[C@H]4[C@H](N(C)C)C(O)=C(C(N)=O)C(=O)[C@@]4(O)C(O)=C2C3=O)c1.Cl` was 93

Entry `Clc1ccc(-c2nc3cc(-c4ccc5nc(-c6ccc(Cl)cc6)[nH]c5c4)ccc3[nH]2)cc1` , Plasmodium falciparum data, Inhibition value: 100

The reported Inhibition value, Plasmodium falciparum, for `CCc1cn2c3c(cc(C(=O)N[C@@H](Cc4ccccc4)[C@H](O)CNC4CCOCC4)cc13)N(CC(F)(F)F)S(=O)(=O)CC2.O=CO` reads 98

Plasmodium falciparum data for `Cl.O=S(=O)(Nc1cc2c(cc1OCCCN1CCCCC1)CCNCC2)c1ccc(-c2ccc(Cl)cc2)cc1` ; its Inhibition: 100

This collection of values is drawn from ChEMBL document CHEMBL1157539.
